experiment: LC-MS/MS screen of murine portal and peripheral blood for conjugated bile acids; conditions: mouse, in vivo
assay_readout: presence in portal and peripheral blood

- molecule: "CC(C)C[C@H](NC(=O)CC[C@@H](C)[C@H]1CC[C@H]2[C@@H]3[C@H](O)C[C@@H]4C[C@H](O)CC[C@]4(C)[C@H]3C[C@H](O)[C@]12C)C(=O)O"
  assay_readout: "presence in portal and peripheral blood"
  meas_value: "not found"
- molecule: "C[C@H](CCC(=O)N[C@@H](Cc1ccccc1)C(=O)O)[C@H]1CC[C@H]2[C@@H]3[C@H](O)C[C@@H]4C[C@H](O)CC[C@]4(C)[C@H]3C[C@H](O)[C@]12C"
  assay_readout: "presence in portal and peripheral blood"
  meas_value: "not found"
- molecule: "C[C@H](CCC(=O)N[C@@H](Cc1ccc(O)cc1)C(=O)O)[C@H]1CC[C@H]2[C@@H]3[C@H](O)C[C@@H]4C[C@H](O)CC[C@]4(C)[C@H]3C[C@H](O)[C@]12C"
  assay_readout: "presence in portal and peripheral blood"
  meas_value: "not found"

====

test system: human fecal batch culture; assay: Incubation with actively growing human fecal batch culture (metabolism by microbiota); format: in vitro ADME; conditions: 10 μM bile acid, 24 h

- compound: "CC(C)C[C@H](NC(=O)CC[C@@H](C)[C@H]1CC[C@H]2[C@@H]3[C@H](O)C[C@@H]4C[C@H](O)CC[C@]4(C)[C@H]3C[C@H](O)[C@]12C)C(=O)O [Leu-chol, leucocholic acid]"
  deconjugation by the microbiota: "not deconjugated"
- compound: "C[C@H](CCC(=O)N[C@@H](Cc1ccc(O)cc1)C(=O)O)[C@H]1CC[C@H]2[C@@H]3[C@H](O)C[C@@H]4C[C@H](O)CC[C@]4(C)[C@H]3C[C@H](O)[C@]12C [Tyr-chol, tyrosocholic acid]"
  deconjugation by the microbiota: "not deconjugated"
- compound: "C[C@H](CCC(=O)N[C@@H](Cc1ccccc1)C(=O)O)[C@H]1CC[C@H]2[C@@H]3[C@H](O)C[C@@H]4C[C@H](O)CC[C@]4(C)[C@H]3C[C@H](O)[C@]12C [Phe-chol, phenylalanocholic acid]"
  deconjugation by the microbiota: "not deconjugated"
